molecular target: Rap guanine nucleotide exchange factor 3 (Homo sapiens); experiment: Confirmatory qHTS for agonist of cAMP-regulated guanine nucleotide exchange factor 3 (EPAC1) (AID 1645881); conditions: EPAC1 Rap1B BODIPY-GDP exchange fluorescence; series mostly up to 154 µM;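 note: EPAC1 catalysed release of BODIPY-GDP from Rap1B seen as fluorescence loss; 100% = effect of cAMP agonist control; nearly all actives have a fitted effect of over 75% in size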
Results filed as inconclusive are left out. Active and inactive are the calls of the source. Calls come from the whole dose curve; as a rule, active = well fitted activation curve with a large enough effect; inconclusive = small, poorly fitted or top-dose-only effect; inactive = no such curve, though single readings can be large or run the other way.
MEASUREMENT_NAME: outcome

Example cases with answers are listed next.
[
  {
    "COMPOUND": "Cc1ccc(C)c(S(=O)(=O)N2CCN(C(=O)CCc3nc4ccccc4c(=O)[nH]3)CC2)c1",
    "outcome": "inactive"
  },
  {
    "COMPOUND": "COC(=O)c1ccc2nc(-c3ccccc3)c(Cc3ccccc3C(F)(F)F)n2c1",
    "outcome": "inactive"
  },
  {
    "COMPOUND": "CNc1snc(C)c1C(=O)OCC(=O)Nc1ccc(C)cc1F",
    "outcome": "inactive"
  },
  {
    "COMPOUND": "Cc1ccc(C(=O)c2no[n+]([O-])c2C(=O)c2ccc(C)cc2)cc1",
    "outcome": "inactive"
  },
  {
    "COMPOUND": "CCCC(=O)OCCNc1cc(SCc2ccco2)c2nonc2c1[N+](=O)[O-]",
    "outcome": "inactive"
  },
  {
    "COMPOUND": "CCOc1cc(/C=C2\\SC(=S)N(NS(=O)(=O)c3ccc(C)cc3)C2=O)ccc1O",
    "outcome": "inactive"
  }
]

# compound O=C(Nc1cc(C(F)(F)F)ccc1Cl)c1nc2ccccc2nc1N1CCCCC1 ; its outcome = inactive

Short answer for CCOc1ccc2nc(NC3=NC(c4ccc(OC)cc4)CC(=O)N3)nc(C)c2c1 (stereo not given) : outcome was inactive

Data point: COC(=O)c1ccc2nc(-c3ccc(OC)c(OC)c3)c(Cc3ccccc3)n2c1 ; outcome = inactive

Input COc1ccc(C)cc1-n1c(-c2ccc(Cl)cc2)cc2c1CC(C)(C)CC2=O . Output outcome: inactive

Short answer for N#CCC(=O)Nc1ccc(C(=O)OCC(=O)Nc2ccc3ccccc3c2)cc1 : outcome was inactive

Query O=C(O)CCn1cc(C2CC(c3ccccc3)=NN2c2ccccc2)c(-c2ccccc2)n1 (stereo not given) yields outcome of inactive

The compound identified as Cc1ccc(-c2ccc(CN3C(C(C)C)C(=O)N(Cc4cn(CCC5OCCO5)nn4)CCS3(=O)=O)cc2)c(C)c1 (stereo not given) registered its outcome at inactive

Per the record, O=C1CCC([N+](=O)[O-])C(c2cccc3ccccc23)N1 (stereo not given) has outcome of inactive

Entry COC(=O)c1ccc2nc(C3CCCCC3)c(Cc3ccccc3)n2c1 — recorded outcome = inactive

---

target: Rap guanine nucleotide exchange factor 3 (Homo sapiens) (UniProt O95398); assay: Counterscreen qHTS for antagonist of cAMP-regulated guanine nucleotide exchange factor 3 (EPAC1) (AID 1645888); conditions: Rap1B-BODIPY-GDP nucleotide exchange, fluorescence; series mostly up to 154 µM;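 note: fluorescence loss as bound BODIPY-GDP is released from Rap1B; % of control where 0% means no effect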
Sequence (O95398 whole entry, looked up): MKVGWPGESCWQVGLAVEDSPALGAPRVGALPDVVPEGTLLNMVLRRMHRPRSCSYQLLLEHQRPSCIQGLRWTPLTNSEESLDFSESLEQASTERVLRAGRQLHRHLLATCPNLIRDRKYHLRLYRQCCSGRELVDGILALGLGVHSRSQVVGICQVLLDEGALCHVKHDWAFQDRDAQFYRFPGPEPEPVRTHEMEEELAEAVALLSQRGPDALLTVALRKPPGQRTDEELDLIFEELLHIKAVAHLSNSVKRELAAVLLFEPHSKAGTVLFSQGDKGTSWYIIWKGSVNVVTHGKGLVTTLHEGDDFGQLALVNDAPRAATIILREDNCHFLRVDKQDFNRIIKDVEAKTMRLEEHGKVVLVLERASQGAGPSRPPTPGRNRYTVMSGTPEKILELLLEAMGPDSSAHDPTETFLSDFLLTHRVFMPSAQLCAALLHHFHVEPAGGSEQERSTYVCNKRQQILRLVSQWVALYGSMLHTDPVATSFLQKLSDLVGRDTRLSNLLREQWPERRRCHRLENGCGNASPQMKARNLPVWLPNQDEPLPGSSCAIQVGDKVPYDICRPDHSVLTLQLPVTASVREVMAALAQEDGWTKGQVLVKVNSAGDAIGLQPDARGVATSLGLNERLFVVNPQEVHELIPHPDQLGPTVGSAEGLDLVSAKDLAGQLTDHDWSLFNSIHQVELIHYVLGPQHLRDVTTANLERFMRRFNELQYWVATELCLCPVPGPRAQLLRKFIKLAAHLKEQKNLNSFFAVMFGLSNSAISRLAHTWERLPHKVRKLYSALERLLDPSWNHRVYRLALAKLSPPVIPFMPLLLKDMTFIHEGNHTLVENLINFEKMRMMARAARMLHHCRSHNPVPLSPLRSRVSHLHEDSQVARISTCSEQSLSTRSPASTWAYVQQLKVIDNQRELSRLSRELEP
Inconclusive results are not listed. Active and inactive are the calls of the source. Calls come from the whole dose curve; as a rule, active = well fitted inhibition curve with a large enough effect; inconclusive = small, poorly fitted or top-dose-only effect; inactive = no such curve, though single readings can be large or run the other way.
MEASUREMENT_NAME: activity change, negative = inhibition

The following compounds have reported results that may help.
[
  {
    "COMPOUND": "O=C1/C(=C\\c2cccc(O)c2O)SC(=S)N1Cc1ccccc1",
    "activity change, negative = inhibition": "inactive"
  },
  {
    "COMPOUND": "C=CC[C@@H](Cc1ccc(F)cc1)C(=O)OC[C@@H]1CCCN1C(=O)[C@@H](CC=C)CC(=O)N(CCO)Cc1ccccc1",
    "activity change, negative = inhibition": "inactive"
  },
  {
    "COMPOUND": "O=C(/C=C/c1ccco1)Nc1cccc2cccnc12",
    "activity change, negative = inhibition": "21.3% [at 30.8 µM] (inactive)"
  },
  {
    "COMPOUND": "Cc1ccc(NC2c3ncccc3C(=O)N2Cc2cccs2)cc1 (stereo not drawn)",
    "activity change, negative = inhibition": "8.01% [at 30.8 µM] (inactive)"
  },
  {
    "COMPOUND": "COc1ccc(Oc2cn[nH]c2-c2ccc(OC)cc2O)cc1",
    "activity change, negative = inhibition": "-4.7% [at 30.8 µM] (inactive)"
  }
]

Entry COc1ccc(CCNC(=S)N2CCN(S(=O)(=O)c3ccc(F)cc3)CC2)cc1 ; activity change, negative = inhibition = inactive

GET /value?item= COc1ccc(-c2csc(NC(=O)c3ccccc3NS(=O)(=O)c3ccc(F)c(F)c3)n2)cc1 &field=activity change, negative = inhibition returns -3.56% [at 30.8 µM] (inactive)

Quick note, activity change, negative = inhibition for CCSc1nc(-c2ccccc2)nc2c1CCCC2 landed at inactive

---

experiment: Cell Viability - H-4-II-E (AID 543); conditions: H-4-II-E rat hepatoma viability; series mostly up to 92.2 µM;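 note: cells exposed to compound for 40 hours; nearly all actives have a fitted effect of over 35% in size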
Results filed as inconclusive are left out. Calls of active or inactive are those of the source. Calls follow the shape of the dose curve; as a rule, active = well fitted cell-killing curve with a large enough effect; inconclusive = small, poorly fitted or top-dose-only effect; inactive = flat fitted curve, though single readings scatter.
# output must be one of active, inactive

Previously resolved entries follow.
[
  {
    "MOLECULE": "Cc1ccc(N)c([N+](=O)[O-])c1",
    "CLASS_LABEL": "inactive"
  },
  {
    "MOLECULE": "C=CC(=C)CCC=C(C)C",
    "CLASS_LABEL": "inactive"
  },
  {
    "MOLECULE": "NC1=NC(S)C2N=CN=C2N1 (stereo not given)",
    "CLASS_LABEL": "active"
  },
  {
    "MOLECULE": "CCCCCCCCCCCC(=O)O",
    "CLASS_LABEL": "inactive"
  },
  {
    "MOLECULE": "c1ccc2scnc2c1",
    "CLASS_LABEL": "inactive"
  }
]

Entry O=C(O)c1ccccc1 : call = ?
inactive

Which result was noted for this molecule in the test: O=[N+]([O-])c1cccc(Cl)c1Cl
inactive

Call for entry CCC(C)c1ccccc1O (stereo not given) :
inactive

I'd appreciate the recorded outcome for CC1(C)CC(N=C=O)CC(C)(CN=C=O)C1 (stereo not given) from this test.
inactive

Hi, do you know how C1OCOCO1 came out in this test?
inactive

---

experiment: NCATS anti-infectives library activity on the primary C. elegans qHTS viability assay (AID 1745855); note: potency is the fitted concentration of half-maximal effect; details: C. elegans worm area imaging, day 7; series mostly up to 41.8 µM
Results filed as inconclusive are left out. Active and inactive are the calls of the source. Calls come from the whole dose curve.
MEASUREMENT_NAME: Potency

[
  {
    "COMPOUND": "O=c1cc(-c2ccc(O)c(-c3c(O)cc(O)c4c(=O)cc(-c5ccc(O)cc5)oc34)c2)oc2cc(O)cc(O)c12",
    "Potency": "inactive"
  },
  {
    "COMPOUND": "CC1(C)CC[C@]2(C(=O)O)CC[C@]3(C)C(=CC[C@@H]4[C@@]5(C)CC[C@H](O)C(C)(C)[C@@H]5CC[C@]43C)[C@@H]2C1",
    "Potency": "inactive"
  },
  {
    "COMPOUND": "O=C(NO)c1cccc(C(=O)NCCc2ccccc2)c1",
    "Potency": "inactive"
  },
  {
    "COMPOUND": "CC(C)(C)c1cc(C(=O)/C(C#N)=N/Nc2cccc(Cl)c2)no1",
    "Potency": "14.5 µM (active)"
  }
]

Next item in the queue.
Form field Potency, entry C=C[C@@H]1C[C@]1(NC(=O)[C@@H]1C[C@@H](Oc2ncc(OC)c3ccc(Cl)cc23)CN1C(=O)[C@@H](NC(=O)OC(C)(C)C)C(C)(C)C)C(=O)NS(=O)(=O)C1CC1 : 20.5 µM (active)

---

test: S16 Schwann cell PMP22 intronic element beta-lactamase assay (AID 624044); details: S16 rat Schwann cells, PMP22 element beta-lactamase FRET, 24 h; series mostly up to 38.3 µM; note: nearly all actives have a fitted effect of over 15% in size; note: potency is the fitted concentration of half-maximal effect
Results filed as inconclusive are left out. Activity calls are given as the source filed them. Calls follow the shape of the full dose curve.
MEASUREMENT_NAME: Potency

Record excerpt, results attached:
[
  {
    "MOLECULE": "CC(C)CN(C[C@@H](O)[C@H](Cc1ccccc1)NC(=O)O[C@H]1CCOC1)S(=O)(=O)c1ccc(N)cc1",
    "Potency": "inactive"
  },
  {
    "MOLECULE": "CC1(C)S[C@@H]2[C@H](NC(=O)COc3ccccc3)C(=O)N2[C@H]1C(=O)O",
    "Potency": "inactive"
  },
  {
    "MOLECULE": "S=C1NC=NC2N=CNC12 (stereo unspecified)",
    "Potency": "17.8 µM (active)"
  },
  {
    "MOLECULE": "CC(C)CN(C[C@@H](OP(=O)(O)O)[C@H](Cc1ccccc1)NC(=O)O[C@@H]1CCOC1)S(=O)(=O)c1ccc(N)cc1",
    "Potency": "inactive"
  },
  {
    "MOLECULE": "C=C[C@]1(C)C[C@@H](OC(=O)CSCCN(CC)CC)[C@]2(C)C(C)CC[C@]3(CCC(=O)[C@H]32)[C@@H](C)[C@@H]1O (stereo partly specified)",
    "Potency": "inactive"
  }
]

Now consider the entry below.
According to the records, this molecule CC(C)(CO)C(O)C(=O)NCCCC(=O)O (stereo unspecified) displays Potency of inactive

The values you see were collected from PubChem BioAssay (NCATS).
